# System: PC-12
# experimentalDetails: Neuroprotective activity against SNP induced rat PC-12 cells assessed as increase in cell viability at 10 uM preincubated for 2 hrs followed by SNP stimulation for 24 hrs by MTT assay relative to control
# Type: functional
Please provide measured Activity for the entries that follow.
Quick note: give the figure in %, leave out the unit.

-- ask Please report the recorded Activity for Oc1cc(C(F)(F)F)ccc1-c1nc(-c2ccccc2O)n(-c2ccc(C(F)(F)F)cc2)n1 .
-- reply 101.67

-- ask What do we get for Oc1cc(C(F)(F)F)ccc1-c1nc(-c2ccccc2O)n(-c2ccc(I)cc2)n1 ?
-- reply 104.51

-- ask Proceed to COc1ccc(-n2nc(-c3ccc(C(F)(F)F)cc3O)nc2-c2ccccc2O)cc1
-- reply 98.85

-- ask Field entry: Oc1cc(C(F)(F)F)ccc1-c1nc(-c2ccccc2O)n(-c2cc(F)cc(F)c2)n1
-- reply 106.29

-- ask What about CC1=NN(c2ccccc2)C(=O)C1 [EDARAVONE] ?
-- reply 80.25

----------
Exercise: for every item that follows, state its recorded Activity.
# System: PC-12
# experimentalDetails: Neuroprotective activity against SNP induced rat PC-12 cells assessed as increase in cell viability at 10 uM preincubated for 2 hrs followed by SNP stimulation for 24 hrs by MTT assay relative to control
# Format: functional
Respond with a number, then the unit of measure.

-- ask Look at this compound and give its reported Activity. Oc1cc(C(F)(F)F)ccc1-c1nc(-c2ccccc2O)n(-c2ccccc2Cl)n1
-- reply 102.19%

-- ask Now this one: Oc1cc(C(F)(F)F)ccc1-c1nc(-c2ccccc2O)n(-c2ccc(OC(F)(F)F)cc2)n1
-- reply 92.54%

-- ask // repeat for Cc1ccc(-n2nc(-c3ccc(C(F)(F)F)cc3O)nc2-c2ccccc2O)c(C)c1 and report
-- reply 106.25%

-- ask Next entry: Oc1cc(C(F)(F)F)ccc1-c1nc(-c2ccccc2O)n(-c2ccccc2C(F)(F)F)n1
-- reply 92.2%

-- ask Now consider Oc1cc(C(F)(F)F)ccc1-c1nc(-c2ccccc2O)n(-c2ccc(F)cc2F)n1 and answer again.
-- reply 97.86%

-- ask Moving on to the next compound: Oc1cc(C(F)(F)F)ccc1-c1nc(-c2ccccc2O)n(-c2cc(C(F)(F)F)cc(C(F)(F)F)c2)n1
-- reply 86.16%

-- ask What do we get for CCc1ccc(-n2nc(-c3ccc(C(F)(F)F)cc3O)nc2-c2ccccc2O)cc1 ?
-- reply 106.61%

-- ask Here is the next compound: Oc1cc(C(F)(F)F)ccc1-c1nc(-c2ccccc2O)n(-c2cccc(C(F)(F)F)c2)n1
-- reply 99.9%

----------
# experimentalDetails: Metabolic stability in human plasma assessed as parent compound remaining at 200 uM measured after 60 min by LC-MS/MS analysis relative to control
# Type: ADME, cell-free
# conditionDescription: read-out: Stability
experimentalEndpoint: remaining at 1 h, 200 µM (%)
Write the value in % as a bare number.

-- ask Suppose we examine the compound CC(C)[N+](C)(CCOC(=O)C1c2ccccc2Oc2ccccc21)C(C)C ; what remaining at 1 h, 200 µM value has been reported?
-- reply 34.5

-- ask Now give it for Cc1cc(C)cc(-n2nc(-c3ccc(C(F)(F)F)cc3O)nc2-c2ccccc2O)c1 too.
-- reply 90.7

----------
For each of the compounds below, state its remaining at 1.5 h, 200 µM.
# experimentalDetails: Metabolic stability in human plasma assessed as parent compound remaining at 200 uM measured after 90 min by LC-MS/MS analysis relative to control
# Assay type: ADME, cell-free
# conditionDescription: read-out: Stability

-- ask Data request, read-out remaining at 1.5 h, 200 µM, for CC(C)[N+](C)(CCOC(=O)C1c2ccccc2Oc2ccccc21)C(C)C
-- reply 17.3%

-- ask Next compound up: Cc1cc(C)cc(-n2nc(-c3ccc(C(F)(F)F)cc3O)nc2-c2ccccc2O)c1
-- reply 89.5%
